- Test system: VEGF, P15692-4
- Sequence: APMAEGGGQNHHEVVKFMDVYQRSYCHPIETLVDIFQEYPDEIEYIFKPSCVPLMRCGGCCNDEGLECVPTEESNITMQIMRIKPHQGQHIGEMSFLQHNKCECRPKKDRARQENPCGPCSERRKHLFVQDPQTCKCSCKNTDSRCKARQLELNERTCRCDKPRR
- methodNotes: cell_activity
- measurementParameters: NX278 (dialkylglycerol, 2'-NH2, 2'-OMe, PS) embedded in DSPC:cholesterol liposome; KSY-1 Kaposi's sarcoma cell proliferation; HUVEC IC50 about 300 nM (p159)
endpoint: IC50 (nM)
Write the number in nM without appending the unit.

Exercise: Give the reported IC50 for TTTTACCCUGAUGGUAGACGCCGGGGUGTTTTT [NX278-Liposome] (system: VEGF, P15692-4).
Key: 100

* * *

Below, each entry is listed alongside its reported pKd.
- Test system: VEGF165 (Homo sapiens), P15692-4
- Sequence: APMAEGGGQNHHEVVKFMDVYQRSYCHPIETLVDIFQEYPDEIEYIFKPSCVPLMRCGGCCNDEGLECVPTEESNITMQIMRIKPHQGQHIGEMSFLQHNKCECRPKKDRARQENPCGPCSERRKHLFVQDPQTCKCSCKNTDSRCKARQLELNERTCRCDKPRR
- methodNotes: filter
- measurementParameters: 2'-F pyrimidines; 37 C
# pKd = -log10(concentration in molar units)

Solved entries (count: 4):
In [3]: df
Out[3]:
                                      chain  endpoint    val
0  GGGAGGACGAUGCGGUAGGAAGAAUUGGAAGCGCAUUUUCCUCGYCAGACGACUCGCCCGA [VP30.22]       pKd  10.70
1  GGGAGGACGAUGCGGAYCAACCGAUUGACGUUAUGGGACGCUGGUCAGACGACUCGCCCGA [VP30.5]       pKd  11.10
2  GGGAGGACGAUGCGGAGAAUCAGUGAAUGCUUAUAAAUCUCGYGUCAGACGACUCGCCCGA [VT30.3]       pKd  11.30
3  GGGAGGACGAUGCGGYGAACCGAUGGAAUUUUUGGACGCUCGCCUCAGACGACUCGCCCGA [VP30.2]       pKd  11.00

// next item, pKd requested
Exercise: What value of measured pKd is listed for GGGAGGACGAUGCGGCGGYACUUUGGAAGAAUUGAAUUUCCCGCUCAGACGACUCGCCCGA [VP30.26] ?
Key: 11.00
